measured on: Genome polyprotein (dengue virus type 2)
Sequence (P12823 1346-1475 limits assumed): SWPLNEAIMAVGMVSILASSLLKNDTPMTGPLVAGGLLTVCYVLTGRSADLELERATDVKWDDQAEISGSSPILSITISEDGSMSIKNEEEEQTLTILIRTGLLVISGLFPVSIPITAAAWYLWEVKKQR
Sequence (P12823 1476-2090 limits assumed): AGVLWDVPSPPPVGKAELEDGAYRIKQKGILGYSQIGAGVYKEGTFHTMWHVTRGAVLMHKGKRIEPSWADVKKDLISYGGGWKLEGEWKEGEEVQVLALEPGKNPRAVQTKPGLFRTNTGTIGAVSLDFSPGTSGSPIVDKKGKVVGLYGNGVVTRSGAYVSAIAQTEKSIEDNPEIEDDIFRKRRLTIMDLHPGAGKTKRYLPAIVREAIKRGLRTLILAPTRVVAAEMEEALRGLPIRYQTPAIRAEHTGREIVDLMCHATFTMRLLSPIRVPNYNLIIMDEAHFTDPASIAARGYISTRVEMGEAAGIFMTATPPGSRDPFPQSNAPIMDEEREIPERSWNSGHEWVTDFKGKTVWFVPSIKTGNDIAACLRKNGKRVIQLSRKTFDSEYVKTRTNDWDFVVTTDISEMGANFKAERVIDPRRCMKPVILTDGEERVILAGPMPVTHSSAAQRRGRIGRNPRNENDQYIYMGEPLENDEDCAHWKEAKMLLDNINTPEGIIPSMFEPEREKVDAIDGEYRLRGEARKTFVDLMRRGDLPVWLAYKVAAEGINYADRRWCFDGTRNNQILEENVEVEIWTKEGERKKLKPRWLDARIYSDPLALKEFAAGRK
Square brackets hold non-standard residues; d marks the D form. Peptide text beside a SMILES is read from it. * marks the point of attachment. Cha = N[C@@H](CC1CCCCC1)C(=O)O; Tle = CC(C)(C)[C@H](N)C(=O)O; Nva = CCC[C@H](N)C(=O)O; Bz = O=C(c1ccccc1)*
endpoint label: IC50 (µM)

Recorded IC50, per entry:
1) CC(C)(C)[C@H](NC(=O)[C@H](CCCCN)NC(=O)[C@H](CCCNC(=N)N)NC(=O)c1ccccc1)C(N)=O (Bz-Arg-Lys-[Tle]-NH2)	137
2) N=C(N)NCCC[C@H](NC(=O)c1ccccc1)C(=O)N[C@@H](CCCCN)C(=O)N[C@@H](Cc1ccccc1)C(N)=O (Bz-Arg-Lys-Phe-NH2)	11.9
3) CCC[C@H](NC(=O)[C@H](CCCCN)NC(=O)[C@H](CCCNC(=N)N)NC(=O)c1ccccc1)C(N)=O (Bz-Arg-Lys-[Nva]-NH2)	25.2

(a) CCCC[C@H](NC(=O)[C@H](CCCCN)NC(=O)[C@H](CCCNC(=N)N)NC(=O)c1ccc(/C=C(\C#N)C(=O)NC2CC2)cc1)C(N)=O
(b) CC(C)C[C@H](NC(=O)[C@H](CCCCN)NC(=O)[C@H](CCCNC(=N)N)NC(=O)c1ccccc1)C(N)=O (Bz-Arg-Lys-Leu-NH2)
(c) CSCC[C@H](NC(=O)[C@H](CCCCN)NC(=O)[C@H](CCCNC(=N)N)NC(=O)c1ccccc1)C(N)=O (Bz-Arg-Lys-Met-NH2)
Exercise: Order by IC50, ascending. Show the ranking through the labels, in the order asked for.
Key: a, b, c
(a: 5.3 µM, b: 22.7 µM, c: 47.5 µM)

(I) C[C@H](NC(=O)[C@H](CCCCN)NC(=O)[C@H](CCCNC(=N)N)NC(=O)c1ccccc1)C(N)=O (Bz-Arg-Lys-Ala-NH2)
(II) N=C(N)NCCC[C@H](NC(=O)c1ccccc1)C(=O)N[C@@H](CCCCN)C(=O)N[C@@H](CC1CCCCC1)C(N)=O (Bz-Arg-Lys-[Cha]-NH2)
Exercise: When I and II are compared, which has the higher number for IC50? Choose, then provide that item's label.
Key: I
